target: AgBbc1; assay: SPOT peptide array binding signal intensity (averaged, normalized) (arbitrary units (background-subtracted, floor 0; scale differs between SH3 domains)); higher = stronger binding of the SH3 domain to the peptide
Grouping rule (SPOT peptide array binding signal intensity): low value (below 30), medium value (30 to below 100), high value (100 or more)

query: Which class holds TSFKGRPKPPKTLKH ?
result: low value

query: Which class holds AHFQPQRTAPKPPIS ?
result: medium value

query: Which class holds QRKSLRRPTLSKPAV ?
result: high value

query: Which class holds EVTPKVPERPSRRKT ?
result: high value

query: Which class holds VGFRLALKFPSRITG ?
result: medium value

query: Which class holds RVRKTHVPASKRPSG ?
result: high value

query: Which class holds TPTSGPPLLPPRNTM ?
result: high value

query: Which class holds KRNRLKILLPFLEQS ?
result: low value

query: Which class holds SSAAPPPPPRRATPE ?
result: high value

query: Which class holds VAPPPLPNRQLPNLD ?
result: medium value

query: Which class holds GATNNAPTLPKRKNP ?
result: medium value

query: Which class holds PELAPKREAPKPPAN ?
result: low value

query: Which class holds VNFRRIPTGPDSPPT ?
result: low value

query: Which class holds RKRAPTPPAPSRSEK ?
result: high value

query: Which class holds QNTPPLPPKPKSPHL ?
result: low value

query: Which class holds RRRIAYPFYPFKKLG ?
result: low value

query: Which class holds GDHPKGPPPPPPPPD ?
result: low value

query: Which class holds NRPAIRIPSLKKPAL ?
result: low value

src = the supplement of paper PMC4466140
